# Test system: HT29 colon
# test_details: NCI tumour cell line growth inhibition, 48 h
Field: TGI. Provide a value for each of the compounds that follow.

Please review the following examples before continuing.
O=C1Nc2c(Cl)cc(Cl)cc2/C1=N/N=C/c1ccccc1O = 40.4 µM
NC(CSC(=O)c1ccccc1)C(=O)O (stereo unspecified) = > 100 µM
O=C1/C(=C/c2ccc3c(c2)CCC3)Cc2cc3c(cc21)CCC3 = > 100 µM
COc1ccccc1N=Nc1c(-c2ccccc2)nn(C(=O)CC(=O)Nc2ccccc2Cl)c1-c1ccccc1 = > 100 µM
O=C1C=Cc2cscc21 = > 100 µM

Next compound, TGI to be filled in.
input: Specify TGI for `OC(Cc1cccnc1)(c1ccccc1)c1ccccc1` and stop.
output: > 100 µM
